- assay.target: KRAS-G12V antigen peptide (Homo sapiens, UniProt P01116, G12V)
- protocol.details: Emax and EC50 (functional avidity) of TCR MHC-II binding region mutants, Jurkat-NFAT-Luc with peptide-loaded SW620-DPB cells
- Type: cell-based
- Parameters: expressed in transfected cells; host or cells: SW620-DPB cells (SW620 expressing HLA-DPB1*03:01); the peptide is synthetic
- applied.conditions: G12V antigen peptide 10 μg/ml, 10-fold dilution, 5 concentrations
Task for the reader: assign each of the following molecules its reported EC50 μg/ml (Functional Avidity).
Give bare numbers, in µg/mL.

molecule	result.value
α49K-G (TCR) TCR alpha: AQSVAQPEDQVNVAEGNPLTVKCTYSVSGNPYLFWYVQYPNRGLQFLLGYITGDNLVKGSYGFEAEFNKSQTSFHLKKPSALVSDSALYFCAVRDGRGGGNKLTFGTGTQLKVEL TCR beta: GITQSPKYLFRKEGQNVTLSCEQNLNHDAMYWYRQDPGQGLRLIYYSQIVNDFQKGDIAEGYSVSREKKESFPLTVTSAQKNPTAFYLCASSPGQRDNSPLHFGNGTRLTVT	0.809

--- query ---
# EC50 μg/ml (Functional Avidity) lookup, item β56Q-T (TCR) TCR alpha: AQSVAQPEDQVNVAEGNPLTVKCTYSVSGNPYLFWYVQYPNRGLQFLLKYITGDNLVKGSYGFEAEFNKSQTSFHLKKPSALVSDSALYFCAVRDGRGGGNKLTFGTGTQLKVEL TCR beta: GITQSPKYLFRKEGQNVTLSCEQNLNHDAMYWYRQDPGQGLRLIYYSQIVNDFTKGDIAEGYSVSREKKESFPLTVTSAQKNPTAFYLCASSPGQRDNSPLHFGNGTRLTVT 1.762
